- Tested on: Staphylococcus aureus
- measurement_description: Antibacterial activity against Staphylococcus aureus ATCC 33591 assessed as reduction in bacterial growth by Mueller-Hinton broth based assay
- Format: functional
endpoint: MIC (µg/mL)

CN1C(=O)[C@@H]2NC(=O)[C@@H]3NC(=O)[C@@H](c4ccc(O)cc4)NC(=O)[C@H](NC(=O)C(Nc4cccc(O)c4O)c4ccc(O)cc4)Cc4c[nH]c5cc(ccc45)-c4cc3cc(c4O)Oc3ccc(cc3)C[C@H]1C(=O)N[C@@H](C(=O)O)c1ccc(O)c(c1)Oc1ccc2cc1 (some centres not stated) | 16
CN1C(=O)[C@@H]2NC(=O)[C@@H]3NC(=O)[C@@H](c4ccc(O)cc4)NC(=O)[C@H](NC(=O)C(N)c4ccc(O)cc4)Cc4c[nH]c5cc(ccc45)-c4cc3cc(c4O)Oc3ccc(cc3)C[C@H]1C(=O)N[C@@H](C(=O)O)c1ccc(O)c(c1)Oc1ccc2cc1 (some centres not stated) | 8
CCCCCCCCCCCNC(C(=O)N[C@@H]1Cc2c[nH]c3cc(ccc23)-c2cc3cc(c2O)Oc2ccc(cc2)C[C@H]2C(=O)N[C@@H](C(=O)O)c4ccc(O)c(c4)Oc4ccc(cc4)[C@@H](NC(=O)[C@@H]3NC(=O)[C@@H](c3ccc(O)cc3)NC1=O)C(=O)N2C)c1ccc(O)cc1 (some centres not stated) | 16
CCCCNC(C(=O)N[C@@H]1Cc2c[nH]c3cc(ccc23)-c2cc3cc(c2O)Oc2ccc(cc2)C[C@H]2C(=O)N[C@@H](C(=O)O)c4ccc(O)c(c4)Oc4ccc(cc4)[C@@H](NC(=O)[C@@H]3NC(=O)[C@@H](c3ccc(O)cc3)NC1=O)C(=O)N2C)c1ccc(O)cc1 (some centres not stated) | 16
CN1C(=O)[C@@H]2NC(=O)[C@@H]3NC(=O)[C@@H](c4ccc(O)cc4)NC(=O)[C@H](NC(=O)C(Nc4cc(F)cc(F)c4F)c4ccc(O)cc4)Cc4c[nH]c5cc(ccc45)-c4cc3cc(c4O)Oc3ccc(cc3)C[C@H]1C(=O)N[C@@H](C(=O)O)c1ccc(O)c(c1)Oc1ccc2cc1 (some centres not stated) | 8
CN1C(=O)[C@@H]2NC(=O)[C@@H]3NC(=O)[C@@H](c4ccc(O)cc4)NC(=O)[C@H](NC(=O)C(Nc4cccc(C(F)(F)F)c4)c4ccc(O)cc4)Cc4c[nH]c5cc(ccc45)-c4cc3cc(c4O)Oc3ccc(cc3)C[C@H]1C(=O)N[C@@H](C(=O)O)c1ccc(O)c(c1)Oc1ccc2cc1 (some centres not stated) | 8

---

- measurement_description: Hemolytic activity in human RBC incubated for 1 hr by absorbance based analysis
- Type: toxicity, cell-based, Erythrocyte
- experimental_setup: red blood cells (erythrocytes)
endpoint: IC50 at 1 h

CCCCCCNC(C(=O)N[C@@H]1Cc2c[nH]c3cc(ccc23)-c2cc3cc(c2O)Oc2ccc(cc2)C[C@H]2C(=O)N[C@@H](C(=O)O)c4ccc(O)c(c4)Oc4ccc(cc4)[C@@H](NC(=O)[C@@H]3NC(=O)[C@@H](c3ccc(O)cc3)NC1=O)C(=O)N2C)c1ccc(O)cc1 (stereo partly drawn) | > 256 µg/mL
CN1C(=O)[C@@H]2NC(=O)[C@@H]3NC(=O)[C@@H](c4ccc(O)cc4)NC(=O)[C@H](NC(=O)C(N)c4ccc(O)cc4)Cc4c[nH]c5cc(ccc45)-c4cc3cc(c4O)Oc3ccc(cc3)C[C@H]1C(=O)N[C@@H](C(=O)NCCCN)c1ccc(O)c(c1)Oc1ccc2cc1 (stereo partly drawn) | > 256 µg/mL
CN1C(=O)[C@@H]2NC(=O)[C@@H]3NC(=O)[C@@H](c4ccc(O)cc4)NC(=O)[C@H](NC(=O)C(NC(=O)CCCCCN)c4ccc(O)cc4)Cc4c[nH]c5cc(ccc45)-c4cc3cc(c4O)Oc3ccc(cc3)C[C@H]1C(=O)N[C@@H](C(=O)O)c1ccc(O)c(c1)Oc1ccc2cc1 (stereo partly drawn) | > 256 µg/mL

---

- System: Mycolicibacterium smegmatis
- measurement_description: Antimycobacterial activity against Mycobacterium smegmatis MC2 155 assessed as inhibition of bacterial growth measured after 2 days by resazurin dye based analysis
- Format: functional
- experimental_setup: MC2 155, 48 h, time 2 day
endpoint: MIC (µg/mL)

CNCCNC(=O)[C@@H]1NC(=O)[C@@H]2Cc3ccc(cc3)Oc3cc4cc(c3O)-c3ccc5c(c[nH]c5c3)C[C@@H](NC(=O)C(N)c3ccc(O)cc3)C(=O)N[C@H](c3ccc(O)cc3)C(=O)N[C@H]4C(=O)N[C@@H](C(=O)N2C)c2ccc(cc2)Oc2cc1ccc2O (stereo not given in full) | 0.5
CN1C(=O)[C@@H]2NC(=O)[C@@H]3NC(=O)[C@@H](c4ccc(O)cc4)NC(=O)[C@H](NC(=O)C(NCCO)c4ccc(O)cc4)Cc4c[nH]c5cc(ccc45)-c4cc3cc(c4O)Oc3ccc(cc3)C[C@H]1C(=O)N[C@@H](C(=O)OCCO)c1ccc(O)c(c1)Oc1ccc2cc1 (stereo not given in full) | 16

---

Quick list: MIC per entry.
- Tested on: Mycolicibacterium smegmatis
- measurement_description: Antimycobacterial activity against Mycobacterium smegmatis MC2 155 assessed as inhibition of bacterial growth measured after 2 days by resazurin dye based analysis
- Format: functional
- experimental_setup: MC2 155, 48 h, time 2 day
endpoint: MIC

CN1C(=O)[C@@H]2NC(=O)[C@@H]3NC(=O)[C@@H](c4ccc(O)cc4)NC(=O)[C@H](NC(=O)C(N)c4ccc(O)cc4)Cc4c[nH]c5cc(ccc45)-c4cc3cc(c4O)Oc3ccc(cc3)C[C@H]1C(=O)N[C@@H](C(=O)O)c1ccc(O)c(c1)Oc1ccc2cc1 (stereo partly drawn) | 8 µg/mL
CN1C(=O)[C@@H]2NC(=O)[C@@H]3NC(=O)[C@@H](c4ccc(O)cc4)NC(=O)[C@H](NC(=O)C(Nc4ccc(Br)cc4)c4ccc(O)cc4)Cc4c[nH]c5cc(ccc45)-c4cc3cc(c4O)Oc3ccc(cc3)C[C@H]1C(=O)N[C@@H](C(=O)O)c1ccc(O)c(c1)Oc1ccc2cc1 (stereo partly drawn) | > 128 µg/mL
CN1C(=O)[C@@H]2NC(=O)[C@@H]3NC(=O)[C@@H](c4ccc(O)cc4)NC(=O)[C@H](NC(=O)C(Nc4cccc(O)c4O)c4ccc(O)cc4)Cc4c[nH]c5cc(ccc45)-c4cc3cc(c4O)Oc3ccc(cc3)C[C@H]1C(=O)N[C@@H](C(=O)O)c1ccc(O)c(c1)Oc1ccc2cc1 (stereo partly drawn) | > 128 µg/mL
NNC(=O)c1ccncc1 | 4 µg/mL
CN1C(=O)[C@@H]2NC(=O)[C@@H]3NC(=O)[C@@H](c4ccc(O)cc4)NC(=O)[C@H](NC(=O)C(Nc4ccc(O)c(O)c4O)c4ccc(O)cc4)Cc4c[nH]c5cc(ccc45)-c4cc3cc(c4O)Oc3ccc(cc3)C[C@H]1C(=O)N[C@@H](C(=O)O)c1ccc(O)c(c1)Oc1ccc2cc1 (stereo partly drawn) | > 128 µg/mL
CN1C(=O)[C@@H]2NC(=O)[C@@H]3NC(=O)[C@@H](c4ccc(O)cc4)NC(=O)[C@H](NC(=O)C(Nc4cccc(-c5ccc(F)cc5)c4)c4ccc(O)cc4)Cc4c[nH]c5cc(ccc45)-c4cc3cc(c4O)Oc3ccc(cc3)C[C@H]1C(=O)N[C@@H](C(=O)O)c1ccc(O)c(c1)Oc1ccc2cc1 (stereo partly drawn) | > 128 µg/mL
CN1C(=O)[C@@H]2NC(=O)[C@@H]3NC(=O)[C@@H](c4ccc(O)cc4)NC(=O)[C@H](NC(=O)C(Nc4cc(Cl)cc(Cl)c4Cl)c4ccc(O)cc4)Cc4c[nH]c5cc(ccc45)-c4cc3cc(c4O)Oc3ccc(cc3)C[C@H]1C(=O)N[C@@H](C(=O)O)c1ccc(O)c(c1)Oc1ccc2cc1 (stereo partly drawn) | > 128 µg/mL
CN1C(=O)[C@@H]2NC(=O)[C@@H]3NC(=O)[C@@H](c4ccc(O)cc4)NC(=O)[C@H](NC(=O)C(Nc4cccc(F)c4F)c4ccc(O)cc4)Cc4c[nH]c5cc(ccc45)-c4cc3cc(c4O)Oc3ccc(cc3)C[C@H]1C(=O)N[C@@H](C(=O)O)c1ccc(O)c(c1)Oc1ccc2cc1 (stereo partly drawn) | > 128 µg/mL

---

Items are presented alongside their recorded MIC.
- System: Staphylococcus aureus
- measurement_description: Antibacterial activity against Staphylococcus aureus ATCC 33591 assessed as reduction in bacterial growth by Mueller-Hinton broth based assay
- Format: functional
endpoint: MIC

CN1C(=O)[C@@H]2NC(=O)[C@@H]3NC(=O)[C@@H](c4ccc(O)cc4)NC(=O)[C@H](NC(=O)Cc4ccc(O)cc4)Cc4c[nH]c5cc(ccc45)-c4cc3cc(c4O)Oc3ccc(cc3)C[C@H]1C(=O)N[C@@H](C(=O)NCCC[N+]1(C)CCCC1)c1ccc(O)c(c1)Oc1ccc2cc1 | > 128 µg/mL
CN1C(=O)[C@@H]2NC(=O)[C@@H]3NC(=O)[C@@H](c4ccc(O)cc4)NC(=O)[C@H](NC(=O)C(NCCS(=O)(=O)O)c4ccc(O)cc4)Cc4c[nH]c5cc(ccc45)-c4cc3cc(c4O)Oc3ccc(cc3)C[C@H]1C(=O)N[C@@H](C(=O)OCCS(=O)(=O)O)c1ccc(O)c(c1)Oc1ccc2cc1 (stereo partly drawn) | > 128 µg/mL
CN1C(=O)[C@@H]2NC(=O)[C@@H]3NC(=O)[C@@H](c4ccc(O)cc4)NC(=O)[C@H](NC(=O)C(Nc4cc(Cl)cc(Cl)c4Cl)c4ccc(O)cc4)Cc4c[nH]c5cc(ccc45)-c4cc3cc(c4O)Oc3ccc(cc3)C[C@H]1C(=O)N[C@@H](C(=O)O)c1ccc(O)c(c1)Oc1ccc2cc1 (stereo partly drawn) | 4 µg/mL
